test: Selectivity ratio of IC50 for human HCT116/VM46 cells over-expressing P-gp to IC50 for human HCT116 cells; format: functional
Please provide measured Ratio IC50 for the entries that follow.

Query block: Param item = CC[C@]1(NC(=O)c2ccc3c(c2)CCCO3)C[C@H]2CN(CCc3c([nH]c4ccc(F)cc34)[C@@](C(=O)OC)(c3cc4c(cc3OC)N(C)[C@H]3[C@@](O)(C(=O)OC)[C@H](OC(C)=O)[C@]5(CC)C=CCN6CC[C@]43[C@@H]65)C2)C1 ; retrieve measured Ratio IC50.
Result block: 3.8

Query block: Entry CC[C@]1(NC(=O)N2Cc3ccccc3C2)C[C@H]2CN(CCc3c([nH]c4ccc(F)cc34)[C@@](C(=O)OC)(c3cc4c(cc3OC)N(C)[C@H]3[C@@](O)(C(=O)OC)[C@H](OC(C)=O)[C@]5(CC)C=CCN6CC[C@]43[C@@H]65)C2)C1 : reported Ratio IC50 = ?
Result block: 12

Query block: Would you kindly share the measured Ratio IC50 for CC(=O)O[C@H]1C(=O)[C@@]2(C)[C@H]([C@H](OC(=O)c3ccccc3)[C@]3(O)C[C@H](OC(=O)[C@H](O)[C@@H](NC(=O)c4ccccc4)c4ccccc4)C(C)=C1C3(C)C)[C@]1(OC(C)=O)CO[C@@H]1C[C@@H]2O ?
Result block: >50

Query block: Look at this compound and give its reported Ratio IC50. CC[C@]1(NC(=O)c2ccc3c(c2)CCCC3)C[C@H]2CN(CCc3c([nH]c4ccc(F)cc34)[C@@](C(=O)OC)(c3cc4c(cc3OC)N(C)[C@H]3[C@@](O)(C(=O)OC)[C@H](OC(C)=O)[C@]5(CC)C=CCN6CC[C@]43[C@@H]65)C2)C1
Result block: 1.8

Query block: Look at this compound and give its reported Ratio IC50. CC[C@]1(O)C[C@H]2CN(CCc3c([nH]c4ccc(F)cc34)[C@@](C(=O)OC)(c3cc4c(cc3OC)N(C)[C@H]3[C@@](O)(C(=O)OC)[C@H](OC(C)=O)[C@]5(CC)C=CCN6CC[C@]43[C@@H]65)C2)C1
Result block: 100

Query block: Need Ratio IC50, item CC[C@]1(NC(=O)N2Cc3ccc(NC(=O)c4cnccn4)cc3C2)C[C@H]2CN(CCc3c([nH]c4ccc(F)cc34)[C@@](C(=O)OC)(c3cc4c(cc3OC)N(C)[C@H]3[C@@](O)(C(=O)OC)[C@H](OC(C)=O)[C@]5(CC)C=CCN6CC[C@]43[C@@H]65)C2)C1
Result block: 12

Query block: Fill blank: measured Ratio IC50 of the compound CC[C@]1(NC(=O)c2ccc(C)c(C)c2)C[C@H]2CN(CCc3c([nH]c4ccc(F)cc34)[C@@](C(=O)OC)(c3cc4c(cc3OC)N(C)[C@H]3[C@@](O)(C(=O)OC)[C@H](OC(C)=O)[C@]5(CC)C=CCN6CC[C@]43[C@@H]65)C2)C1 is ____.
Result block: 1.7

Query block: Fill in: Ratio IC50 of CC[C@]1(NC(=O)N2Cc3ccc(NC(=O)c4ccncn4)cc3C2)C[C@H]2CN(CCc3c([nH]c4ccc(F)cc34)[C@@](C(=O)OC)(c3cc4c(cc3OC)N(C)[C@H]3[C@@](O)(C(=O)OC)[C@H](OC(C)=O)[C@]5(CC)C=CCN6CC[C@]43[C@@H]65)C2)C1 is ___
Result block: 13

Query block: # input compound: CC[C@]1(NC(=O)N2Cc3ccc(NC(=O)c4cccnn4)cc3C2)C[C@H]2CN(CCc3c([nH]c4ccc(F)cc34)[C@@](C(=O)OC)(c3cc4c(cc3OC)N(C)[C@H]3[C@@](O)(C(=O)OC)[C@H](OC(C)=O)[C@]5(CC)C=CCN6CC[C@]43[C@@H]65)C2)C1 ; wanted: its Ratio IC50
Result block: 12

====

Please provide measured IC50 for the entries that follow.
test system: HCT-116/VM46; assay: Growth inhibition of human HCT116/VM46 cells over-expressing P-gp after 72 hrs by phosphatase assay; assay type: functional, cell-based; settings: HCT-116/VM46, 72 h
# value in nM; strip the unit string

Query block: Record CC[C@]1(NC(=O)c2ccc3c(c2)CCCO3)C[C@H]2CN(CCc3c([nH]c4ccc(F)cc34)[C@@](C(=O)OC)(c3cc4c(cc3OC)N(C)[C@H]3[C@@](O)(C(=O)OC)[C@H](OC(C)=O)[C@]5(CC)C=CCN6CC[C@]43[C@@H]65)C2)C1 : what is its IC50 with HCT-116/VM46?
Result block: 1.8

Query block: Notebook entry, HCT-116/VM46 assay: IC50 of CC[C@]1(NC(=O)N2Cc3ccc(NC(=O)c4cccnn4)cc3C2)C[C@H]2CN(CCc3c([nH]c4ccc(F)cc34)[C@@](C(=O)OC)(c3cc4c(cc3OC)N(C)[C@H]3[C@@](O)(C(=O)OC)[C@H](OC(C)=O)[C@]5(CC)C=CCN6CC[C@]43[C@@H]65)C2)C1 = ?
Result block: 0.87

Query block: Give the reported IC50 for CC[C@]1(NC(=O)c2ccc3c(c2)CCCC3)C[C@H]2CN(CCc3c([nH]c4ccc(F)cc34)[C@@](C(=O)OC)(c3cc4c(cc3OC)N(C)[C@H]3[C@@](O)(C(=O)OC)[C@H](OC(C)=O)[C@]5(CC)C=CCN6CC[C@]43[C@@H]65)C2)C1 (system: HCT-116/VM46).
Result block: 8.7

Query block: Give IC50 (HCT-116/VM46) of the following compound: CC[C@]1(NC(=O)N2Cc3ccccc3C2)C[C@H]2CN(CCc3c([nH]c4ccc(F)cc34)[C@@](C(=O)OC)(c3cc4c(cc3OC)N(C)[C@H]3[C@@](O)(C(=O)OC)[C@H](OC(C)=O)[C@]5(CC)C=CCN6CC[C@]43[C@@H]65)C2)C1
Result block: 7.5

Query block: Quick check: IC50 on HCT-116/VM46, item CC[C@]1(NC(=O)c2ccc(C)c(C)c2)C[C@H]2CN(CCc3c([nH]c4ccc(F)cc34)[C@@](C(=O)OC)(c3cc4c(cc3OC)N(C)[C@H]3[C@@](O)(C(=O)OC)[C@H](OC(C)=O)[C@]5(CC)C=CCN6CC[C@]43[C@@H]65)C2)C1 ?
Result block: 7.6

Query block: Requested read-out IC50, target or system HCT-116/VM46, entry CC[C@]1(NC(=O)N2Cc3ccc(NC(=O)c4ccncn4)cc3C2)C[C@H]2CN(CCc3c([nH]c4ccc(F)cc34)[C@@](C(=O)OC)(c3cc4c(cc3OC)N(C)[C@H]3[C@@](O)(C(=O)OC)[C@H](OC(C)=O)[C@]5(CC)C=CCN6CC[C@]43[C@@H]65)C2)C1
Result block: 0.88

====

assay: Selectivity ratio of IC50 for human A549-T24 cells over-expressing class-3 beta-tubulin to IC50 for human A549 cells; assay type: functional
Experimental readout: Ratio IC50

Query block: Return reported Ratio IC50; argument: CC[C@]1(NC(=O)N2Cc3ccc(NC(=O)c4cnccn4)cc3C2)C[C@H]2CN(CCc3c([nH]c4ccc(F)cc34)[C@@](C(=O)OC)(c3cc4c(cc3OC)N(C)[C@H]3[C@@](O)(C(=O)OC)[C@H](OC(C)=O)[C@]5(CC)C=CCN6CC[C@]43[C@@H]65)C2)C1
Result block: <1

Query block: Fill in: Ratio IC50 of CC[C@]1(NC(=O)c2ccc3c(c2)CCCC3)C[C@H]2CN(CCc3c([nH]c4ccc(F)cc34)[C@@](C(=O)OC)(c3cc4c(cc3OC)N(C)[C@H]3[C@@](O)(C(=O)OC)[C@H](OC(C)=O)[C@]5(CC)C=CCN6CC[C@]43[C@@H]65)C2)C1 is ___
Result block: <1

Query block: Name the recorded Ratio IC50 for CC[C@]1(NC(=O)N2Cc3ccc(NC(=O)c4ccncn4)cc3C2)C[C@H]2CN(CCc3c([nH]c4ccc(F)cc34)[C@@](C(=O)OC)(c3cc4c(cc3OC)N(C)[C@H]3[C@@](O)(C(=O)OC)[C@H](OC(C)=O)[C@]5(CC)C=CCN6CC[C@]43[C@@H]65)C2)C1 .
Result block: <1

Query block: Data request, read-out Ratio IC50, for CC[C@]1(O)C[C@H]2CN(CCc3c([nH]c4ccc(F)cc34)[C@@](C(=O)OC)(c3cc4c(cc3OC)N(C)[C@H]3[C@@](O)(C(=O)OC)[C@H](OC(C)=O)[C@]5(CC)C=CCN6CC[C@]43[C@@H]65)C2)C1
Result block: <1

Query block: I am curious: what Ratio IC50 value has been reported for CC(=O)O[C@H]1C(=O)[C@@]2(C)[C@H]([C@H](OC(=O)c3ccccc3)[C@]3(O)C[C@H](OC(=O)[C@H](O)[C@@H](NC(=O)c4ccccc4)c4ccccc4)C(C)=C1C3(C)C)[C@]1(OC(C)=O)CO[C@@H]1C[C@@H]2O [PACLITAXEL] ?
Result block: 10

Query block: Look up Ratio IC50 for this compound: CC[C@]1(NC(=O)N2Cc3ccc(NC(=O)c4cccnn4)cc3C2)C[C@H]2CN(CCc3c([nH]c4ccc(F)cc34)[C@@](C(=O)OC)(c3cc4c(cc3OC)N(C)[C@H]3[C@@](O)(C(=O)OC)[C@H](OC(C)=O)[C@]5(CC)C=CCN6CC[C@]43[C@@H]65)C2)C1
Result block: <1
